Form: system (Muscarinic acetylcholine receptor M3 (Homo sapiens, UniProt P20309)), quantity (IC50), values below.
assay-metric: IC50

[[record]]
molecule = "O=C(Nc1ccccc1)N1CCCC(c2ccccc2)(C2CCN(Cc3ccc(Br)cc3)CC2)C1 (single isomer, unassigned; (+))"
measured_value = "> 10 µM"

[[record]]
molecule = "O=C1CCC(c2ccccc2)(C2CCN(Cc3ccccc3)CC2)C(=O)N1 (stereo in doubt; (-)-3a) [BENZETIMIDE]"
measured_value = "> 10 µM"

[[record]]
molecule = "O=C1CCC(c2ccccc2)(C2CCN(Cc3ccccc3)CC2)C(=O)N1 (single isomer, unassigned; (+)) [BENZETIMIDE]"
measured_value = "< 0.001 µM"

[[record]]
molecule = "CC(=O)N1CCCC(c2ccccc2)(C2CCN(Cc3ccc(Br)cc3)CC2)C1 (single isomer, unassigned; (+))"
measured_value = "> 10 µM"

[[record]]
molecule = "CC(=O)N1CCCC(c2ccccc2)(C2CCN(Cc3ccc(Br)cc3)CC2)C1 (single isomer, unassigned; (-))"
measured_value = "3 µM"


* * *

assay-target: Muscarinic acetylcholine receptor M1 (Homo sapiens)
Sequence (P11229 whole entry): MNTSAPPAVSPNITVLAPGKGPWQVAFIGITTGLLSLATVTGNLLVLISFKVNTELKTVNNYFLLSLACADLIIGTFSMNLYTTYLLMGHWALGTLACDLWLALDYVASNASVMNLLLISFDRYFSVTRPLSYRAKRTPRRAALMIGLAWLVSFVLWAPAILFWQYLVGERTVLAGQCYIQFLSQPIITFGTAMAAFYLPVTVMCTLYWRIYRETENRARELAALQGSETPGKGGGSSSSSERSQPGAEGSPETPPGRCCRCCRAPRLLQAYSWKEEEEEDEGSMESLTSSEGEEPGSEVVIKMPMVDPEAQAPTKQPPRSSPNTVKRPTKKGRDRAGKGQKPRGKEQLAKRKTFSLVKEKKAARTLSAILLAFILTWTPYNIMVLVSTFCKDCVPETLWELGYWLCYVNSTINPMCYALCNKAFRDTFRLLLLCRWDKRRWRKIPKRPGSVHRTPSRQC
method-notes: Binding affinity to human muscarinic M1 receptor
assay-metric: IC50

[[record]]
compound = "O=C1CCC(c2ccc(F)cc2F)(C2CCN(Cc3ccc(Br)cc3)CC2)C(=O)N1 (single isomer, unassigned; (+))"
measured_value = "< 0.001 µM"

[[record]]
compound = "O=C1CCC(c2ccccc2)(C2CCN(Cc3ccc(Br)cc3)CC2)C(=O)N1 (single isomer, unassigned; (+))"
measured_value = "< 0.001 µM"

[[record]]
compound = "CC(=O)N1CCCC(c2ccccc2)(C2CCN(Cc3ccc(Br)cc3)CC2)C1 (single isomer, unassigned; (-))"
measured_value = "10 µM"

[[record]]
compound = "O=C1CCC(c2ccccc2)(C2CCN(Cc3ccc(Br)cc3)CC2)C(=O)N1 (stereo in doubt; (-)-1a)"
measured_value = "9.6 µM"

[[record]]
compound = "O=C1CCC(c2ccccc2)(C2CCN(Cc3ccccc3)CC2)C(=O)N1 (single isomer, unassigned; (+)) [BENZETIMIDE]"
measured_value = "< 0.001 µM"

[[record]]
compound = "NC(=O)CN1CCCC(c2ccccc2)(C2CCN(Cc3ccc(Br)cc3)CC2)C1 (stereo in doubt; (+)-47b)"
measured_value = "> 10 µM"

[[record]]
compound = "O=C1CCC(c2ccc(F)cc2F)(C2CCN(Cc3ccc(Br)cc3)CC2)C(=O)N1 (single isomer, unassigned; (-))"
measured_value = "> 10 µM"

[[record]]
compound = "NC(=O)CN1CCCC(c2ccccc2)(C2CCN(Cc3ccc(Br)cc3)CC2)C1 (single isomer, unassigned; (-))"
measured_value = "5 µM"

[[record]]
compound = "O=C1CCC(c2ccccc2)(C2CCN(Cc3ccccc3)CC2)C(=O)N1 (stereo in doubt; (-)-3a) [BENZETIMIDE]"
measured_value = "> 10 µM"

